Assay: chemical genetic growth profiling, strain panel (AID 1159580);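 also: tested at 20 µM; growth read once vehicle control cultures reached saturation at 30 °C; 1 = growth at the plate median or of vehicle wells; lower values mean less growth of the strain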
Conditions: S. cerevisiae deletion strains, growth OD, locus YPL256C, strain CLN2, active compounds read low
Out of some 5,500 compounds screened, about 2,000 (36%) were called active. About 18% were inconclusive and are not listed. The list shows a part of the results.
Measure name: normalized growth
One number for each entry.

Sample answers from the record:
> print(dat)
                                smiles.data  numeric.readout
1    COc1ccc(OC)c2nc3c(nc12)C(=O)c1ccccc1-3            0.902
2         O=C(/C=C/c1ccc(O)cc1)c1ccc(O)cc1O            0.877
3  O=C(/C=C/c1ccccc1)c1ccc(O[C@@H]2O[C@H](CO)[C@@H](O)[C@H](O)[C@H]2O)cc1O            0.889
4            COC(=O)c1cc(I)c(OC(C)=O)c(I)c1            0.898

Consider the record given below.
Prompt: Could you please provide reported normalized growth for Cc1csc2ncnc(N3CCN(C(=S)Nc4ccc(C(F)(F)F)cc4)CC3)c12 ? Thanks!
Response: 0.91
